target: Dopamine (DA) uptake into rat brain synaptosome (striatum) (Rattus norvegicus, UniProt P23977); construct: used as crude synaptosome fraction; test: Inhibitory activity on dopamine (DA) uptake into rat brain synaptosome; details: tritium labeled DA 2 nM uptake, 10 min at 37° C., read-out: 50% inhibitory concentration
Sequence (P23977 whole entry): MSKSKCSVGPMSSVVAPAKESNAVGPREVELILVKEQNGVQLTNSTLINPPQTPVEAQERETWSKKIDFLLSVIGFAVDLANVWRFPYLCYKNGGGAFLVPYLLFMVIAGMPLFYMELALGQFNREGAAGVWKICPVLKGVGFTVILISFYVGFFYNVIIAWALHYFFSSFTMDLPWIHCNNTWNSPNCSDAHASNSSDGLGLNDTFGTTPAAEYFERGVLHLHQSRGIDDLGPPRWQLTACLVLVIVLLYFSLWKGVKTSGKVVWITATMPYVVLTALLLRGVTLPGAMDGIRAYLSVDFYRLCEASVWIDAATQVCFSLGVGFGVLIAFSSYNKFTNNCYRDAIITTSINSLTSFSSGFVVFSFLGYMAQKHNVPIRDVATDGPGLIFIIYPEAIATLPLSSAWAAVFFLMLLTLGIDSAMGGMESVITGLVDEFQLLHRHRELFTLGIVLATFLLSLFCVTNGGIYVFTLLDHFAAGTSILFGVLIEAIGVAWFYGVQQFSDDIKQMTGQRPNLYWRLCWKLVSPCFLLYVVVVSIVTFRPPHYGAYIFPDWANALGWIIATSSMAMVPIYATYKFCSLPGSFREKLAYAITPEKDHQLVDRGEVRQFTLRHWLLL
metric: IC50 (nM)
Please respond with the number in nM and leave the unit unwritten.

Ask: Entry Cn1ncc2ccc(N(c3ccc(F)c(Cl)c3)[C@H]3CCNC3)cc21 needs its IC50 filled in; supply it.
Result: 26

Ask: Entry c1cc(N(c2ccc3sccc3c2)[C@H]2CCNC2)cs1 needs its IC50 filled in; supply it.
Result: 32.9

Ask: Entry Fc1ccc(N(c2ccsc2)[C@H]2CCNC2)cc1Cl needs its IC50 filled in; supply it.
Result: 34.7

Ask: Entry CCN1CCN(c2ccc(N(c3ccc(F)c(Cl)c3)[C@H]3CCNC3)nc2)CC1 needs its IC50 filled in; supply it.
Result: 4.3

Ask: Entry Fc1ccc(N(c2ccc3ncsc3c2)[C@H]2CCNC2)cc1Cl needs its IC50 filled in; supply it.
Result: 5.8

Ask: Entry c1ccc(N(c2ccc3sccc3c2)[C@H]2CCNC2)cc1 needs its IC50 filled in; supply it.
Result: 8.9

Ask: Entry Fc1ccc(N(c2ccccc2)[C@H]2CCNC2)cc1Cl needs its IC50 filled in; supply it.
Result: 8.7

Ask: Entry Fc1ccc(N(c2ccccn2)[C@H]2CCNC2)cc1Cl needs its IC50 filled in; supply it.
Result: 9.2

Ask: Entry Cn1c(=O)ccc2cc(N(c3ccc(F)c(Cl)c3)[C@H]3CCNC3)ccc21 needs its IC50 filled in; supply it.
Result: 30.2
